IC50 values for the molecules below.
System: AGS
assayNotes: Antiproliferative activity against human AGS cells harbouring KRAS G12D mutant assessed as inhibition of cell growth measured after 72 hrs by Cell titer glo method
Format: functional, cell-based
assayReadout: IC50

[
  {
    "molecule": "C#Cc1c(F)ccc2cc(O)cc(-c3ncc4c(N5CC6CCC(C5)N6)nc(OC[C@@]56CCCN5C[C@H](F)C6)nc4c3F)c12 [MRTX-1133]",
    "subjectOfTest": "AGS",
    "result": "2.43 nM"
  },
  {
    "molecule": "C#Cc1c(F)ccc2cc(O)cc(-c3ncc4c(N5CC6CCC(C5)N6)nc(OCC5(CN6CCC7(CC6)CC(N6CCC(c8cc9c(cc8F)c(N8CCC(=O)NC8=O)nn9C)CC6)C7)CC5)nc4c3F)c12",
    "subjectOfTest": "AGS",
    "result": "1.01 nM"
  }
]

---

assayNotes: Metabolic stability in rat liver microsomes assessed as half life at 1 uM preincubated for 3 mins with NADPH and measured up to 60 mins by LC-MS/MS analysis
Assay type: ADME, Microsome
experimentalSetup: time < 63 min

[
  {
    "structure": "C#Cc1c(F)ccc2cc(O)cc(-c3ncc4c(N5CC6CCC(C5)N6)nc(OCC5(CN6CCC7(CC6)CC(N6CCC(c8cc9c(cc8F)c(N8CCC(=O)NC8=O)nn9C)CC6)C7)CC5)nc4c3F)c12",
    "resultUnit": "h",
    "half-life at 1 µM": 2.52
  }
]

---

assayNotes: Antiproliferative activity against human GP2d cells harbouring KRAS G12D mutant assessed as inhibition of cell growth measured after 72 hrs by Cell titer glo method
Type: functional, cell-based

[
  {
    "structure": "C#Cc1c(F)ccc2cc(O)cc(-c3ncc4c(N5CC6CCC(C5)N6)nc(OCC5(CN6CCC7(CC6)CC(N6CCC(c8cc9c(cc8F)c(N8CCC(=O)NC8=O)nn9C)CC6)C7)CC5)nc4c3F)c12",
    "resultUnit": "nM",
    "IC50": 0.19
  },
  {
    "structure": "C#Cc1c(F)ccc2cc(O)cc(-c3ncc4c(N5CC6CCC(C5)N6)nc(OC[C@@]56CCCN5C[C@H](F)C6)nc4c3F)c12",
    "resultUnit": "nM",
    "IC50": 0.91
  }
]

---

assayNotes: Plasma protein binding in monkey at 2 uM by LC-MS/MS analysis
Type: ADME, cell-free, Macaca mulatta
experimentalSetup: rhesus monkey, read-out: PPB

[
  {
    "structure": "C#Cc1c(F)ccc2cc(O)cc(-c3ncc4c(N5CC6CCC(C5)N6)nc(OCC5(CN6CCC7(CC6)CC(N6CCC(c8cc9c(cc8F)c(N8CCC(=O)NC8=O)nn9C)CC6)C7)CC5)nc4c3F)c12",
    "fraction unbound at 2 µM": "< 0.05"
  }
]

---

assayNotes: Metabolic stability in dog liver microsomes assessed as intrinsic clearance at 1 uM preincubated for 3 mins with NADPH and measured up to 60 mins by LC-MS/MS analysis
Assay type: ADME, Canis lupus familiaris, Microsome
experimentalSetup: time < 63 min, read-out: CLH

[
  {
    "structure": "C#Cc1c(F)ccc2cc(O)cc(-c3ncc4c(N5CC6CCC(C5)N6)nc(OCC5(CN6CCC7(CC6)CC(N6CCC(c8cc9c(cc8F)c(N8CCC(=O)NC8=O)nn9C)CC6)C7)CC5)nc4c3F)c12",
    "CLint scaled at 1 µM / mL/min/kg": 4.6
  }
]
